TARGET OF ASSAY: Tubulin (Homo sapiens) (UniProt P68371+Q9H4B7+P0DPH7+P68366+Q13509+Q71U36+P04350+Q3ZCM7+P07437+P68363+Q9BQE3+Q6PEY2+Q13885+Q9BVA1+Q9BUF5)
EXPERIMENT SUMMARY: Stabilization of microtubules in human QBI293 cells assessed as fold change in alpha tubulin levels at 10 uM after 4 hrs by ELISA relative to DMSO
Type: cell-based
READOUT NAME: fold change (FC)
Number only, please.

• C[C@H](Nc1c(-c2c(F)cccc2F)c(Cl)nc2ncnn12)C(F)(F)F = 1.02
• CSc1cc(F)c(-c2c(Cl)nc3ncnn3c2N[C@@H](C)C(F)(F)F)c(F)c1 = 0.56
• Fc1cc(F)c(-c2c(Cl)nc3ncnn3c2NC2CCC2)c(F)c1 = 0.95
• Fc1cc(F)c(-c2c(Cl)nc3ncnn3c2N2CCCCC2)c(F)c1 = 1.2

Would you kindly look at the next entry?
Consider C[C@H](Nc1c(-c2c(F)cc(N)cc2F)c(Cl)nc2ncnn12)C(F)(F)F . Its measured fold change (FC) is 0.96
